Test system: Thoracic aorta
Assay: Vasodilatory activity in Sprague-Dawley rat thoracic aorta assessed as inhibition of noradrenaline-induced contractions at 10 uM relative to untreated control
Type: functional
Answer class 0 if inhibition at 10 µM is under 40%, and class 1 if it is 40% or more.

## Input Record COc1cc2c(cc1OCC(O)CN1CCN(C(=O)c3ccco3)CC1)C(=O)C(C)OC2 (stereo not drawn) ; criterion: inhibition at 10 µM no lower than 40%. Met?
## Output class 0

## Input Hi team, for CCOc1ccccc1N1CCN(CC(O)COc2cc3c(cc2OC)COC(C)C3=O)CC1 (stereo not drawn) , is the recorded inhibition at 10 µM at or above 40%?
## Output class 0

## Input Decide: is the reported value of inhibition at 10 µM for COc1cc2c(cc1OCC(O)CN1CCN(C(=O)C3CCCO3)CC1)C(=O)C(C)OC2 (stereo not drawn) equal to or greater than 40%?
## Output class 1

## Input In plain terms: is recorded inhibition at 10 µM at least 40% for COc1ccccc1N1CCN(CC(O)COc2cccc3ccccc23)CC1 (stereo not drawn) ?
## Output class 1

## Input Check the entry COc1ccc2c(c1OCC(O)CN1CCN(c3ccccc3)CC1)COC(C)C2=O (stereo not drawn) : does inhibition at 10 µM equal or exceed 40%?
## Output class 0

## Input Check if inhibition at 10 µM >= 40% (inclusive). Item: COc1cc2c(cc1OCC(O)CN1CCN(c3ccccc3)CC1)C(=O)C(C)OC2 (stereo not drawn)
## Output class 0

## Input Hi team, for CCOc1ccccc1N1CCN(CC(O)COc2cc3c(cc2OC)C(=O)C(C)OC3)CC1 (stereo not drawn) , is the recorded inhibition at 10 µM at or above 40%?
## Output class 0

###

Provide the reported inhibition at 10 µM of each item.
Test system: Thoracic aorta
Assay: Vasodilatory activity in Sprague-Dawley rat thoracic aorta assessed as inhibition of noradrenaline-induced contractions at 10 uM relative to untreated control
Assay type: functional
The response must be a number in % with no trailing unit.

## Input Report value only: inhibition at 10 µM, Thoracic aorta, COc1cc2c(cc1OCC(O)CN1CCN(c3ccccc3OC)CC1)C(=O)C(C)OC2 (centres undefined)
## Output 23.1

## Input Enter measured inhibition at 10 µM, system Thoracic aorta, for the compound shown: COc1ccc2c(c1OCC(O)CN1CCN(C(=O)c3ccco3)CC1)COC(C)C2=O (centres undefined)
## Output 20.8

## Input Check Thoracic aorta data and give inhibition at 10 µM for COc1ccc2c(c1OCC(O)CN1CCN(c3ccccc3Cl)CC1)COC(C)C2=O (centres undefined) .
## Output 18.2

## Input Quote Thoracic aorta inhibition at 10 µM for entry COc1ccc2c(c1OCC(O)CN1CCN(C(=O)C3CCCO3)CC1)COC(C)C2=O (centres undefined) .
## Output 31.4
